assay: Plasma concentration of vanoxerine in individual arrhythmia patients (Example 2); format: in vivo, human; settings: human, plasma; second patient, 180 minutes after first dose, further 200 mg given at 120 minutes
measured parameter: concentration at 180 minutes (ng/mL)
Kindly answer with a numeric value in ng/mL, unit omitted.

Ask: Would you kindly share the measured concentration at 180 minutes for Fc1ccc(C(OCCN2CCN(CCCc3ccccc3)CC2)c2ccc(F)cc2)cc1 ?
Result: 60
